- EXPERIMENTAL_TARGET: T1, Murine FGFR2IIIb (murine, UniProt P21803-2 22-263, limits assumed)
- T1 construct: Construct used in the ELISA is not described
- T1 sequence (P21803 other isoform, or with tags, fused parts or gaps limits assumed): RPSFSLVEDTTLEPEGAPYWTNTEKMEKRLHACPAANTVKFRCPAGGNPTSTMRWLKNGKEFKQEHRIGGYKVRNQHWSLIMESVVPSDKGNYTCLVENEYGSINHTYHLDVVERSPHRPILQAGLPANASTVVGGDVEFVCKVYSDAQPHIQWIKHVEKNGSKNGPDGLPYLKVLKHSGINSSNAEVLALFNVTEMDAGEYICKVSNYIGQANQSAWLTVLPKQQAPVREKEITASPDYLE
- TEST_PROTOCOL: ELISA, coated antigen, anti-Fab HRP
MEASURED_ENDPOINT: pEC50
Answers are plain numbers, as −log10 of the molar value.

Consider the worked cases shown below.
BINDER	pEC50
FWB1911 (antibody, V domains shown) VH: QVQLVQSGAEVKKPGSSVKVSCKASGYIFTSYNVHWVRQAPGQGLEWIGSIYPDNGDSSYNQNYKGRATITADKSTSTAYMELSSLRSEDTAVYYCARGDFAYWGQGTLVTVSS VL: DIQMTQSPSSLSASVGDRVTITCKASNGVSNDIAWYQQKPGKAPKLLIYSASYRYSGVPSRFSGSGSGTDFTFTISSLQPEDIATYYCQQHSTTPYSFGQGTKLEIK	9.47
FWB1920 (antibody, V domains shown) VH: QVQLVQSGAEVKKPGSSVKVSCKASGYIFTSYNIHWVRQAPGQGLEWIGSIYPDNGDSSYNQNYRGRATITADKSTSTAYMELSSLRSEDTAVYYCARGDFAYWGQGTLVTVSS VL: DIQMTQSPSSLSASVGDRVTITCKGSNGVSNDIAWYQQKPGKAPKLLIYSASYRYSGVPSRFSGSGSGTDFTFTISSLQPEDIATYYCQQHSTTPYTFGQGTKLEIK	9.56

Batch of 3 binders: report pEC50 for each.
1. FWB1921 (antibody, V domains shown) VH: QVQLVQSGAEVKKPGSSVKVSCKASGYIFTSYNVHWVRQAPGQGLEWIGSIYPDNGDSTYNQNYRGRATITADKSTSTAYMELSSLRSEDTAVYYCARGDFAYWGQGTLVTVSS VL: DIQMTQSPSSLSASVGDRVTITCKGSNGVSNDIAWYQQKPGKAPKLLIYSASYRYSGVPSRFSGSGSGTDFTFTISSLQPEDIATYYCQQHSTTPYTFGQGTKLEIK
2. FWB1908 (antibody, V domains shown) VH: QVQLVQSGAEVKKPGSSVKVSCKASGYIFTTYNVHWVRQAPGQGLEWIGSIYPDNGDSTYNQNFKGRATITADKSTSTAYMELSSLRSEDTAVYYCARGDFAYWGQGTLVTVSS VL: DIQMTQSPSSLSASVGDRVTITCKGSQGVSNDVAWYQQKPGKAPKLLIYSASYRYTGVPSRFSGSGSGTDFTFTISSLQPEDIATYYCQQHSTTPYTFGQGTKLEIK
3. FWB1913 (antibody, V domains shown) VH: QVQLVQSGAEVKKPGSSVKVSCKASGYIFTSYNVHWVRQAPGQGLEWIGSIYPDNGDSSYNQNYKGRATITADKSTSTAYMELSSLRSEDTAVYYCARGDYAYWGQGTLVTVSS VL: DIQMTQSPSSLSASVGDRVTITCKASNGVSNDIAWYQQKPGKAPKLLIYSASYRYSGVPSRFSGSGSGTDFTFTISSLQPEDIATYYCQQHSTTPYSFGQGTKLEIK

1. 9.58
2. 9.65
3. 9.53
